Ref: PubChem BioAssay (NCI)

Test system: HT29 colon
Assay: NCI tumour cell line growth inhibition, 48 h; in the data active = GI50 below about 0.43 µM; inactive = the rest
Outcome (select one): active, inactive

Please review the entries below; each comes with its answer.
| Compound | Label |
| --- | --- |
| Cc1[nH]c(C(=O)Nc2ccccc2OC2CCNCC2)c(Cl)c1Cl | inactive |
| C[N+](C)(CCCCCC[N+](C)(C)CCCN1C(=O)c2cc3ccccc3cc2C1=O)CCCN1C(=O)c2cc3ccccc3cc2C1=O | inactive |
| CN1CC[C@]2(c3cccc(O)c3)CC(=O)/C(=C/c3ccccc3)[C@H]1C2 | inactive |
| NC1CCC(Nc2nc(NCc3cc(Cl)ccc3O)c3ncn(C4CCCC4)c3n2)CC1 (centres undefined) | active |
| CCN(Cc1ccccc1Cl)c1ccc(CO)c(Cl)c1 | inactive |
| COc1cc2nc(-c3ccc(Cl)cc3)cc(OCCCN3CCCC3)c2cc1OC | inactive |
| C=C1CC[C@@H]2[C@](C)(COC(C)=O)[C@H](OC(C)=O)CC[C@@]2(C)[C@@H]1CC(Nc1ccc(S(=O)(=O)Nc2cc(C)on2)cc1)C1=CCOC1=O (some centres undefined) | inactive |
| CCCCCCCCCCC/C=C\C[C@H](O)C/C=C1/C(=O)C=C[C@@H]1C/C=C\CCCC(=O)OC | inactive |

In the following, a different compound is considered.
Query string: Which result was noted for this compound in the test: NCCCn1c2c(c3ccc([N+](=O)[O-])cc3c1=O)C(=O)c1cc(-c3ccccc3)ccc1-2
Result string: active

====

Documented TGI across a set of compounds
Test system: HOP-62 NSCLC
Experiment: NCI tumour cell line growth inhibition, 48 h

| Compound | TGI |
| --- | --- |
| CC1(C)OCC(C2OC(OC(=O)c3ccc([N+](=O)[O-])cc3)C3OC(C)(C)OC23)O1 (centres undefined) | > 100 µM |
| CN(C)CC1CCC/C(=C\c2ccc(OC(=O)/C=C/c3ccccc3)cc2)C1=O (centres undefined) | 10.6 µM |

Query string: Need TGI, item CC(=O)[CH-]C(=O)c1ccccc1.CC(=O)[CH-]C(=O)c1ccccc1.CC1(C)OCC(C2OC3OC(C)(C)OC3C2[O-])O1.CC1(C)OCC(C2OC3OC(C)(C)OC3C2[O-])O1.[Ti+4] (centres undefined)
Result string: 36.2 µM

Query string: Thanks! And COc1ccc2c(Cc3c4ccccc4cc4ccccc34)cncc2c1O ?
Result string: 22.4 µM

Query string: Thanks! And c1ccc(-c2nnc(SCc3c[nH]c4ccccc34)n2-c2ccccc2)cc1 ?
Result string: > 100 µM

Query string: Thanks! And CCC12CCCNC1c1c(n(C)c3ccccc13)C(C(=O)OC)C2 (centres undefined) ?
Result string: > 275 µM

Query string: Thanks! And O=C(Nc1nc(C23CC4CC(CC(C4)C2)C3)cs1)c1cc2cc(Cl)ccc2oc1=O ?
Result string: > 100 µM

Query string: Thanks! And Nc1c(C(=O)N/N=C/c2ccc(Cl)cc2)sc(=S)n1-c1ccccc1 ?
Result string: > 100 µM

Query string: Thanks! And Cc1cc(S(=O)(=O)NC2=NC(c3ccccc3)c3cc(Cl)ccc3N2)c(S)cc1Cl (centres undefined) ?
Result string: > 100 µM

====

Documented TGI across a set of molecules
Test system: SNB-75 CNS
Assay: NCI tumour cell line growth inhibition, 48 h

Please review the entries below; each comes with its answer.
| Molecule | Experimental target | Readout label | Reported result |
| --- | --- | --- | --- |
| N#CC1(Nc2ccc(-c3ccc(NC4(C#N)CCCC4)cc3)cc2)CCCC1 | SNB-75 CNS | TGI | > 100 µM |
| COC(=O)C1=Cc2cc(OC)c(OC)cc2[C@H](c2ccc(OC)c(OC)c2)C1C(=O)OC (stereo not given in full) | SNB-75 CNS | TGI | > 100 µM |
| O=C(/C=C/c1ccccc1Cl)c1cccc2ccccc12 | SNB-75 CNS | TGI | 18.3 µM |
| C1COCCOCCOCCOCCOCCO1.[Cl][Sn]([Cl])([c]1ccccc1)[c]1ccccc1 | SNB-75 CNS | TGI | 19.6 µM |
| COc1ccc2c(c1)[n+]([O-])c(-c1ccc(Br)cc1)c(N)[n+]2[O-] | SNB-75 CNS | TGI | > 100 µM |
| NC(=O)c1ncn(CCN2CCN(C(=O)NCCCCCCNC(=O)N3CCN(CCn4cnc(C(N)=O)c4N)CC3)CC2)c1N | SNB-75 CNS | TGI | > 100 µM |

Query string: Return TGI measured with SNB-75 CNS given this molecule: Cc1ccc(S(=O)(=O)N2c3ccccc3[C@H]3CCC=C[C@H]32)cc1
Result string: 42.5 µM

Query string: Thanks! And OC(c1cc2ccccc2[nH]1)C1(c2cccnc2)SCCCS1 (stereo not given) ?
Result string: > 100 µM

Query string: Thanks! And CCC(=O)NC(Nc1cccc(F)c1)(C(F)(F)F)C(F)(F)F ?
Result string: > 100 µM

Query string: Thanks! And CC1(c2cccc(N)c2)C2C(=O)NC(=O)C1C(=O)NC2=O (stereo not given) ?
Result string: 73.2 µM
